Molecular target: Cyclin-dependent kinase 2/cyclin E (Homo sapiens) (UniProt P24864+P24941+O96020)
Experiment: Inhibition of CDK2/Cyclin E (unknown origin) at 500 nM
Format: protein-complex assay
Quantity Name: inhibition (%)

1 = CS(=O)(=O)N1CCC(Nc2ncc3nc(O)c(=O)n(C4CCNC4)c3n2)CC1 (centres undefined)
2 = CS(=O)(=O)c1ccc(Nc2ncc3nc(O)c(=O)n(C4CCCC4)c3n2)cc1
3 = CS(=O)(=O)N1CCC(Nc2ncc3nc(NN)c(=O)n(C4CCCC4)c3n2)CC1
4 = CS(=O)(=O)N1CCC(Nc2ncc3nc(NCC(F)F)c(=O)n(C4CCCC4)c3n2)CC1
Input: Ordering criterion: inhibition; begin with the maximum. Reply: labels, ordered per the request.
Output: 3, 4, 2, 1
(3: 85.6%, 4: 51.2%, 2: 30%, 1: 4.1%)

Value source: ChEMBL document CHEMBL5257095
